Test system: DU-145
Assay: NCI tumour cell line growth inhibition, 48 h
Calls of active or inactive are those of the source. Rule as the data show it: active = GI50 up to about 1.1 µM and inactive = higher.
Quick list: GI50 per entry.

The following molecules have reported results that may help.
>>> print(df.to_string())
                                   molecule  subject_of_test       recorded_value
0      O=C1/C(=C/c2ccccc2)NC(=S)N1CN1CCOCC1           DU-145  > 100 µM (inactive)
1  O=C1OC(c2ccccc2)N/C1=C\c1ccc2c(c1)OCO2 (configuration not stated)           DU-145  > 100 µM (inactive)
2  CCNC(C)(C)C(SS)c1ccc(Br)cc1 (configuration not stated)           DU-145  > 100 µM (inactive)

So what's the measured GI50 for this one? COc1ccc(NC(=O)CC(=O)NNC(Sc2ccccc2)c2cc(/N=N/c3ccc(Br)cc3)ccc2O)cc1 (configuration not stated)
> 10 µM (inactive)

Need GI50 of CCCCCCCCCCCCCCCCCC(=O)OCC(COC(=O)CCCN)OC(=O)CCCN (configuration not stated) , thanks.
19.6 µM (inactive)

Look up GI50: OC1(c2cccs2)c2cccc(Cl)c2C(O)(c2cccs2)c2c(Cl)cccc21 (configuration not stated)
> 100 µM (inactive)

Quick one: GI50 for "CC(=O)O[C@H]1/C(=C/c2ccncc2)C[C@H]2[C@@H]3CC=C4C[C@@H](N5CCCC5)CC[C@]4(C)[C@H]3CC[C@]12C" ?
14.6 µM (inactive)

GI50 for Cc1ccc2nc(CN3CCCC(O)C3)cc(=O)n2c1 (configuration not stated) ?
> 100 µM (inactive)

Consider the molecule shown here: "Cc1cc(C)c2c(=N)c3ccccc3n(CCCCCCO)c2n1" What is its recorded GI50?
5.48 µM (inactive)

Fill in: GI50 of CCCCCCCCCC1(N=[N+]=[N-])C(=O)c2ccccc2N(C)C1=O (configuration not stated) is ___
28.7 µM (inactive)

Requested field: GI50. Item: COc1ccc(N2C(=O)C3c4[nH]c5ccccc5c4C4c5ccccc5CC4C3C2=O)cc1 (configuration not stated)
> 100 µM (inactive)

So what does the record say about GI50 for "O=CNNC(=O)Nc1ccc(Cl)cc1" ?
> 100 µM (inactive)

* * *

Tested on: HOP-62
Experiment: NCI tumour cell line growth inhibition, 48 h
Active and inactive are the calls of the source. Rule as the data show it: active = GI50 up to about 1.1 µM and inactive = higher.
READOUT_KIND: GI50

Worked examples follow.
In [3]: df
Out[3]:
                                   molecule  subject_of_test  readout_kind       recorded_value
0  O=C1C2ON3c4ccccc4C(=O)C3(c3ccccc3)C2C(=O)N1c1ccccc1 (centres undefined)           HOP-62          GI50  > 100 µM (inactive)
1  On1c(-c2ccccc2)c(-c2ccccc2N2CCCC2)c2ccccc21           HOP-62          GI50  > 100 µM (inactive)
2  O=C1CCC[C@@H]2NC[C@@H](c3ccc4c(c3)OCO4)[C@H]12           HOP-62          GI50   > 25 µM (inactive)

Next molecule, GI50 to be filled in.
For the molecule "Cc1cc(O)c(C(c2cccnc2)c2c(O)cc(C)[nH]c2=O)c(=O)[nH]1" , what GI50 is on record?
> 100 µM (inactive)

* * *

System: A549
Experiment: NCI tumour cell line growth inhibition, 48 h
Active and inactive are the calls of the source. Cut-off read from the data, not from the text of the source: active = GI50 up to about 1.1 µM and inactive = higher.
READOUT_KIND: GI50

Sample answers from the record:
                                   molecule  readout_kind       recorded_value
0  c1cc(C2N3CCCN2CC3)ccn1 (centres undefined)          GI50  > 100 µM (inactive)
1  CC1=CC(=O)[C@@H](O)[C@]2(C)[C@H]3[C@@]4(O)OC[C@]35[C@H]([C@@H](C)[C@H]4O)[C@@H](OC(=O)C(C)(C)CO)C(=O)O[C@@H]5C[C@@H]12          GI50   2.51 µM (inactive)
2  OC1(c2cccs2)c2cccc(Cl)c2C(O)(c2cccs2)c2c(Cl)cccc21 (centres undefined)          GI50  > 100 µM (inactive)
3  NS(=O)(=O)c1cc(S(N)(=O)=O)c(NC(=O)Nc2ccc(Cl)c(Cl)c2)c(Cl)c1Cl          GI50  > 100 µM (inactive)
4  Cc1cccc(C(C)(C)C)c1NC(=O)/C(Cc1nc2ccc([N+](=O)[O-])cc2nc1O)=N\NC(=O)C[N+](C)(C)C          GI50  > 100 µM (inactive)

GI50 for "COc1cc(/C=C2\N=C(c3ccccc3)N(c3ccc(C(=O)c4ccccc4)cc3N3C(=O)/C(=C/c4ccc(O)c(OC)c4)N=C3c3ccccc3)C2=O)ccc1O" ?
11.4 µM (inactive)

Consider the molecule shown here: "O=[N+]([O-])C(/C=C(\Cl)[N+](=O)[O-])=C1Nc2ccccc2N1" What is its recorded GI50?
> 100 µM (inactive)

I have this molecule here, O=CN1CCC23CC(O)CCC2C1Cc1cc(Oc2nnnn2-c2ccccc2)cc(O)c13 (centres undefined) , and I need its recorded GI50.
> 100 µM (inactive)

Given Cc1ccc2nc(-c3ccc(N4C(=O)C(Cl)C4c4ccc(Cl)cc4)cc3)sc2c1 (centres undefined) , state its recorded GI50.
17.3 µM (inactive)

Fill in: GI50 of "O=c1[nH]nc(Cc2ccccc2)n1C1CCCC1" is ___
> 100 µM (inactive)

* * *

Attribute: GI50
Test system: SF-295
Experiment: NCI tumour cell line growth inhibition, 48 h
Calls of active or inactive are those of the source. No stated cut-off is given here; in the data, active = GI50 up to about 1.1 µM and inactive = higher.

>>> df
                                   compound  readout_kind       recorded_value
0  COC(=O)C(=O)C(C(C)=O)C(=O)C(=O)Nc1ccc(C)cc1C (stereo not drawn)          GI50  > 100 µM (inactive)
1  Cc1nnc(N/N=C(/C(=O)C(C#N)c2ccccc2)C(C#N)c2ccccc2)n1N (stereo not drawn)          GI50   3.75 µM (inactive)

Recall the recorded GI50 for "Cc1cccc(Nc2nn3c(=O)c4c5c(sc4nc3s2)CCCC5)c1" with SF-295 and state it.
3.08 µM (inactive)

* * *

Listed here: items and their measured GI50.
Test system: SK-MEL-2
Experiment: NCI tumour cell line growth inhibition, 48 h
The source made the active and inactive calls. No stated cut-off is given here; in the data, active = GI50 up to about 1.1 µM and inactive = higher.

>>> df
                            chemical_string  subject_of_test      recorded_value
0    N=C(N)SCc1ccc2c(c1)S(=O)(=O)c1ccccc1O2         SK-MEL-2  16.4 µM (inactive)
1  COc1cc(C[C@H]2c3cc(OC)c(OC)cc3CCN2C)c(Oc2cc3c(cc2OC)-c2c(OC)c(OC)cc4c2[C@H](C3)N(C)CC4)cc1OC         SK-MEL-2    10 µM (inactive)

Which GI50 value belongs to "Brc1ccc2c3c1[C@H]1O[C@H]1c1cccc(c1-3)[C@@H]1O[C@H]21" ?
18.3 µM (inactive)

# GI50 lookup, item "CCCCCN1CCN(c2ncccn2)CC1"
> 100 µM (inactive)

* * *

System: A549
Assay: NCI tumour cell line growth inhibition, 48 h
Active and inactive are the calls of the source. Rule as the data show it: active = GI50 up to about 1.1 µM and inactive = higher.
READOUT_KIND: GI50

In [3]: df
Out[3]:
                                   molecule  readout_kind       recorded_value
0  c1ccc(C2CC(N3CCOCC3)=Nc3ccccc3N2)cc1 (centres undefined)          GI50  > 100 µM (inactive)
1  CN(C)/C(F)=P\C(F)(F)F (centres undefined)          GI50  > 100 µM (inactive)
2            C=CCc1cccc2cc(C(N)=O)c(=N)oc12          GI50  > 100 µM (inactive)

# ---- query molecule ----
If you can, please state the reported GI50 value of CCOc1ccc(NCC2CC/C(=C\C=C\c3ccccc3)C2=O)cc1 (centres undefined) .
42.1 µM (inactive)
